# Assay Target: Enoyl-acyl-carrier protein reductase (Plasmodium falciparum)
# Sequence (Q965D5 whole entry): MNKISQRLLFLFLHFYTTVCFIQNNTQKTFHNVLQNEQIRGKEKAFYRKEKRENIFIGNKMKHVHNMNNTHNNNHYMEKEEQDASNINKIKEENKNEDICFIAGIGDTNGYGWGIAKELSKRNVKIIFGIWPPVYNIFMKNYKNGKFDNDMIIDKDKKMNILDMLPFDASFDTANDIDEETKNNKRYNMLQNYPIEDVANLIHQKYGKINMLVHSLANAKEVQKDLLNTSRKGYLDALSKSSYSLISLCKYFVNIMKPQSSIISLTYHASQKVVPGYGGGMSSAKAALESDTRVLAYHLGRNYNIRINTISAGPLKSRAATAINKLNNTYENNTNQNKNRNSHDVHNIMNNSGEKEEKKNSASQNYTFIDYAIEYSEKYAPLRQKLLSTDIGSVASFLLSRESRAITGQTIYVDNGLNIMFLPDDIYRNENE
Metric Name: pKi
Lab note: report pKi as minus log10 of the concentration in molar units, number only.

*Q* I am curious: what pKi value has been reported for Oc1cc(Cl)ccc1Oc1ccc(Cl)cc1Cl ?
*A* 7.30
